FYI, the data here is from patent US20170022281A1.

# tested.target: T1, human PRLR (Biacore antigen) (human, UniProt P16471 25-234, limits assumed)
# T1 construct: The construct injected over captured antibody is not described (a soluble form is likely); also called huPRLR
# T1 sequence: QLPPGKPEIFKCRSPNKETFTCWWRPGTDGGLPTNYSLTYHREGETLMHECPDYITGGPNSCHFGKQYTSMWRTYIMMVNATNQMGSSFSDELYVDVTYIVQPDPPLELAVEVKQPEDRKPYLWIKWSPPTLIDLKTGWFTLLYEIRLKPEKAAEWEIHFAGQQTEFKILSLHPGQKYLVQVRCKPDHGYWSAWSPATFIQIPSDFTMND
# test: SPR simultaneous binding; PRLR held by surface mAb Ab21
reported.metric: solution mAb binding, % of PRLR binding (%)
Answers are plain numbers, in %.

binder	solution mAb binding, % of PRLR binding (%)
Ab39 (antibody, human IgG1, kappa, V domains shown, humanized from Ab7; G1; also called Ab4 HC.1a and Ab4 LC.1a) VH: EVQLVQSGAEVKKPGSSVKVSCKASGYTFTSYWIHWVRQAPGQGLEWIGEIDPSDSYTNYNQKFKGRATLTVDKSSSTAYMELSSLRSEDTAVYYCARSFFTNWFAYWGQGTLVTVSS VL: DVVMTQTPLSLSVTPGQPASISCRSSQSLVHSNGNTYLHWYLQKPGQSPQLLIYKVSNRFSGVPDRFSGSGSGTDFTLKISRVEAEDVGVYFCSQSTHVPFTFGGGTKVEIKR	-1
LFA102 (antibody, human IgG1, kappa, V domains shown, humanized IgG1 kappa comparator (WO 2008022295)) VH: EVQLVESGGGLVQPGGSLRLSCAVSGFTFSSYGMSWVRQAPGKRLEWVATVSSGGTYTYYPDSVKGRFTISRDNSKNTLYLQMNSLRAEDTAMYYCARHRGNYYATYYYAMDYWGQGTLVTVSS VL: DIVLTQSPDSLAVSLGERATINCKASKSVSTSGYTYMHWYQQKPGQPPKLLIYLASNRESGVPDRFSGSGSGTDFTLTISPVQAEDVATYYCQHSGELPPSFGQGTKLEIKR	21

Moving on to the next binder.
Form field solution mAb binding, % of PRLR binding, entry chAb6 (antibody, human IgG1, kappa, V domains shown, chimeric, murine variable and human G1/kappa constant regions) VH: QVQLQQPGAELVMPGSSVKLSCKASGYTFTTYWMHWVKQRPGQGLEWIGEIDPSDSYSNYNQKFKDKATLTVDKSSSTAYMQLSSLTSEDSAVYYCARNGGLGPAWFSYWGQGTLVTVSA VL: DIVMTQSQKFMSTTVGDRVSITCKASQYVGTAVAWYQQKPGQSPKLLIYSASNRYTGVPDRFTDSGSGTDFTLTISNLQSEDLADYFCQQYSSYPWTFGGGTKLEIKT : -1
